tested on: Human peripheral blood mononuclear cells; test: Human Concanavalin-A Proliferation Assay (Con HU Assay); format: cell-based; conditions: Homo sapiens, PBMC, concanavalin-A stimulated human PBMC, tritiated thymidine
metric: pIC50
Lab note — pIC50 values are minus log10 of concentrations in M.

Q. Consider the molecule shown here: Cc1nnsc1C(=O)Nc1ccc(-n2nc(C(F)(F)F)cc2Br)cc1 What is its recorded pIC50?
A. 6.99

Q. Consider the molecule shown here: Cc1ccsc1C(=O)Nc1ccc(-n2nc(C(F)(F)F)cc2C(F)(F)F)cc1 What is its recorded pIC50?
A. 7.36

Q. Consider the molecule shown here: O=C(Nc1ccc(-n2nc(C(F)(F)F)cc2C(F)(F)F)cc1)c1c(F)cccc1C(F)(F)F What is its recorded pIC50?
A. 6.36

Q. Consider the molecule shown here: O=C(Nc1ccc(-n2nc(C(F)(F)F)cc2C(F)(F)F)cc1)c1c(F)c(F)cc(F)c1F What is its recorded pIC50?
A. 7.21

Q. Consider the molecule shown here: O=C(Nc1ccc(-n2nc(C(F)(F)F)cc2C(F)(F)F)cc1)c1cccc(Cl)c1 What is its recorded pIC50?
A. 6.47

Q. Consider the molecule shown here: O=C(Nc1ccc(-n2nc(C(F)(F)F)cc2[N+](=O)[O-])cc1)c1ccccc1F What is its recorded pIC50?
A. 6.78

Q. Consider the molecule shown here: O=C(Nc1ccc(-n2nc(C(F)(F)F)cc2C(F)(F)F)cc1)c1ccc(CO)cc1 What is its recorded pIC50?
A. 6.52

The measured values listed here are drawn from patent US20010044445A1.
